Molecular target: NK2 (Homo sapiens, UniProt P21452)
Sequence (P21452 1-398): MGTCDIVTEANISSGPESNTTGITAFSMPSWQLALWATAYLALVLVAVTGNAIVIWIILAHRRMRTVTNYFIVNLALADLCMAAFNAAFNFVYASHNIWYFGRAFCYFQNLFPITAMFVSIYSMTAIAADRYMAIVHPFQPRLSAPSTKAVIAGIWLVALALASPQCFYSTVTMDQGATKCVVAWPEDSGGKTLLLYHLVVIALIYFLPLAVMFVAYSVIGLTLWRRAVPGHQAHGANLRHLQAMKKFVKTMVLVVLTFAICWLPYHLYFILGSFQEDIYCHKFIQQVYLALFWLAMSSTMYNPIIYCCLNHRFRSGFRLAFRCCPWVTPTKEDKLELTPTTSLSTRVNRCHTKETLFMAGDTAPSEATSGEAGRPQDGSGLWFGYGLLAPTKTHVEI
Test: Signal transduction (ST), intracellular Ca++ (FLIPR), NK2
Type: cell-based
Settings: antagonist, read-out: NK2 pIC50 (converted)
Experimental: [The source words this procedure for another target and reports this target under the same test.] This test evaluates in vitro functional NK1 antagonistic activity. For the measurements of intracellular Ca^++ concentrations the cells were grown on 96-well (black wall/transparent bottom) plates from Costar for 2 days until they reached confluence. […] The cells were preincubated with a concentration range of antagonists for 20 min at RT and Ca^++-signals after addition of the agonists were measured in a Fluorescence Image Plate Reader (FLIPR from Molecular Devices, Crawley, England). […]
experimentalReadout: IC50

• Cc1cc(=O)oc(C)c1C(=O)N1CCC2(CC1)CCN([C@H]1CCN(C(=O)c3cc(C(F)(F)F)cc(C(F)(F)F)c3)[C@H](Cc3ccccc3)C1)CC2 = ~10 µM
• O=C(c1cc(C(F)(F)F)cc(C(F)(F)F)c1)N1CC[C@H](N2CCC3(CC2)CCN(S(=O)(=O)c2cc(Cl)cc(Cl)c2)CC3)C[C@H]1Cc1ccccc1 = > 10 µM
• O=C1CC2(CCN1CC1CC1)CCN(C1CCN(C(=O)c3cc(C(F)(F)F)cc(C(F)(F)F)c3)C(Cc3ccccc3)C1)CC2 (centres unmarked) = ~1.41 µM
• Cc1noc(C)c1C(=O)N1CCC2(CC1)CCN([C@H]1CCN(C(=O)c3cc(C(F)(F)F)cc(C(F)(F)F)c3)[C@H](Cc3ccccc3)C1)CC2 = > 10 µM
• O=C(c1ncccc1O)N1CCC2(CC1)CCN([C@H]1CCN(C(=O)c3cc(C(F)(F)F)cc(C(F)(F)F)c3)[C@H](Cc3ccccc3)C1)CC2 = > 10 µM
• O=C(c1ccc2c(c1)OCO2)N1CCC2(CC1)CCN([C@H]1CCN(C(=O)c3cc(C(F)(F)F)cc(C(F)(F)F)c3)[C@H](Cc3ccccc3)C1)CC2 = > 10 µM
• O=C(c1cc(C(F)(F)F)cc(C(F)(F)F)c1)N1CC[C@@H](N2CCC3(CCN(C(=O)C45CC6CC(CC(C6)C4)C5)CC3)CC2)C[C@H]1Cc1ccccc1 = > 10 µM
• O=C(c1cc(C(F)(F)F)cc(C(F)(F)F)c1)N1CC[C@H](N2CCC3(CC2)CCN(S(=O)(=O)c2c(Cl)sc(Cl)c2Br)CC3)C[C@H]1Cc1ccccc1 = > 10 µM
• O=C(c1cc(C(F)(F)F)cc(C(F)(F)F)c1)N1CC[C@H](N2CCC3(CC2)CCN(S(=O)(=O)c2ccc(Cl)c(Cl)c2)CC3)C[C@H]1Cc1ccccc1 = > 10 µM
• O=C(c1cc(C(F)(F)F)cc(C(F)(F)F)c1)N1CC[C@H](N2CCC3(CC2)CCN(S(=O)(=O)c2ccc(Cl)s2)CC3)C[C@H]1Cc1ccccc1 = > 10 µM
• O=C(c1cc(C(F)(F)F)cc(C(F)(F)F)c1)N1CC[C@H](N2CCC3(CC2)CCN(S(=O)(=O)c2ccc(C(F)(F)F)cc2)CC3)C[C@H]1Cc1ccccc1 = > 10 µM
